Target: T1, GST–PPARγ fusion protein (purified ligand binding domain of PPARγ)
T1 chain: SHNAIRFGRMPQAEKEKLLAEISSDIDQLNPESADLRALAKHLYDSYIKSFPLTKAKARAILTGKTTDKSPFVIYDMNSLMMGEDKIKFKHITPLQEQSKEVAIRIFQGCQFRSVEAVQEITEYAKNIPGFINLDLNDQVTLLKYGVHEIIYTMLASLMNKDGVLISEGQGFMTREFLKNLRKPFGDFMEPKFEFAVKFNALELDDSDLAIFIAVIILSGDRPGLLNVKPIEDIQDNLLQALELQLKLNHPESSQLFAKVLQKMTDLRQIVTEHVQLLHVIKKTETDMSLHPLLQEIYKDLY
Test: FRET or BRET; homogeneous TR-FRET as a1, 12-concentration dose–response of rosiglitazone; the EC50 is of the compound; delta ratio in % of the reference compound at 10 μM (RO4899100 for PPARα, edaglitazone for PPARγ)
Details: both partners purified
Where no end group is shown, it is not given here. The star is where a group is joined. Biotin = O=C1N[C@H]2[C@H](CS[C@H]2CCCCC(=O)*)N1; Ahx = NCCCCCC(=O)O
attribute.measured: EC50 of rosiglitazone for recruitment (nM)

Study these solved cases before continuing.
# binder, attribute.measured, endpoint.unit, quantitative.result
rows = [
    ("{Biotin-Ahx}-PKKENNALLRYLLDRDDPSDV (source: synthetic peptide (Jerini or Biosynthan, Berlin)) [RAC3_M3 cofactor peptide (receptor-associated co-activator 3, motif 3)]", "EC50 of rosiglitazone for recruitment", "nM", 271),
    ("{Biotin-Ahx}-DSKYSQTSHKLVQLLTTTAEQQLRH (source: synthetic peptide (Jerini or Biosynthan, Berlin)) [SRC1_M1 cofactor peptide (steroid receptor co-activator 1, motif 1)]", "EC50 of rosiglitazone for recruitment", "nM", 240),
]

a = {Biotin-Ahx}-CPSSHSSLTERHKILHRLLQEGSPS (source: synthetic peptide (Jerini or Biosynthan, Berlin)) [SRC1_M2 cofactor peptide (steroid receptor co-activator 1, motif 2)]
b = {Biotin-Ahx}-SNMHGSLLQEKHRILHKLLQNGNSP (source: synthetic peptide (Jerini or Biosynthan, Berlin)) [RAC3_M2 cofactor peptide (receptor-associated co-activator 3, motif 2)]
c = {Biotin-Ahx}-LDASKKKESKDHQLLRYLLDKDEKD (source: synthetic peptide (Jerini or Biosynthan, Berlin)) [SRC1_M3 cofactor peptide (steroid receptor co-activator 1, motif 3)]
d = {Biotin-Ahx}-SGNLVPDAASKHKQLSELLRGGSGS (source: synthetic peptide (Jerini or Biosynthan, Berlin)) [CBP cofactor peptide (cAMP responsive element binding protein (CREB)-binding protein)]
In: Could you please order the items by EC50 of rosiglitazone for recruitment, going from the lowest number to the highest? List the labels in the requested order.
Out: d, a, b, c
(d: 10.4 nM, a: 18.5 nM, b: 125 nM, c: 241 nM)
